Data credit: ChEMBL document CHEMBL3797164

assay: Displacement of [3H]2BFI from Imidazoline receptor 2 in Sprague-Dawley rat brain P2 membrans after […] by liquid scintillation counting
Threshold 200 nM. Ki below it: Fulfilled. Ki at it or above: Not fulfilled.

Cl.Fc1cccc2ccn(CC3=NCCN3)c12; Fulfilled

Okay, next one:
[Q] Given Cl.Fc1ccc2ccn(CC3=NCCN3)c2c1 , is recorded Ki strictly lower than 200 nM?
[A] Not fulfilled

----------
Target: Adrenergic receptor alpha-2 (Rattus norvegicus, UniProt P22086+P19328+P22909)
Sequence (P22086 whole entry): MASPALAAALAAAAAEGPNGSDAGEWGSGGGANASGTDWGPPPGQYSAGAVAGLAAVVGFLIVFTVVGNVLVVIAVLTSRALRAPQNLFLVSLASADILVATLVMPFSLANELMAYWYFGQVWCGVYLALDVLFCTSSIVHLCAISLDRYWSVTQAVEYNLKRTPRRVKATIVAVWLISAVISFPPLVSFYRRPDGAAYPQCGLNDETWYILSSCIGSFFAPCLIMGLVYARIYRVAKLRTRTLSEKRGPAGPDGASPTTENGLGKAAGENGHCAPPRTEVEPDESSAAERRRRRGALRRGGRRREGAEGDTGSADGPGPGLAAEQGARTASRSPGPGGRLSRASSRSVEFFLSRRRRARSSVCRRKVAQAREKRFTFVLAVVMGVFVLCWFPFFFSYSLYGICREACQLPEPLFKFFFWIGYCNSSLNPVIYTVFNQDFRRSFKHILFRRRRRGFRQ
Sequence (P19328 whole entry): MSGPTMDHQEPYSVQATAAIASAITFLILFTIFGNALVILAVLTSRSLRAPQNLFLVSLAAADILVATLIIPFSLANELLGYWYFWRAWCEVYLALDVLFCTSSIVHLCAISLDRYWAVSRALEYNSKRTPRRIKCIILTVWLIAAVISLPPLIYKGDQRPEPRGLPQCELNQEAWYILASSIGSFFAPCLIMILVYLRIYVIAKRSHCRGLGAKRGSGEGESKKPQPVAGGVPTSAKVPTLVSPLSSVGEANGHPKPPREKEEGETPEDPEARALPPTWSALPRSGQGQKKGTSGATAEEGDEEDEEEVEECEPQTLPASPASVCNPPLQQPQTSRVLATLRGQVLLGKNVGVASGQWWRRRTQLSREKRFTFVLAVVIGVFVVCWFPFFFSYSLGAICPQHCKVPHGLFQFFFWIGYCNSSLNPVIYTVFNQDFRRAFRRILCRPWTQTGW
Sequence (P22909 whole entry): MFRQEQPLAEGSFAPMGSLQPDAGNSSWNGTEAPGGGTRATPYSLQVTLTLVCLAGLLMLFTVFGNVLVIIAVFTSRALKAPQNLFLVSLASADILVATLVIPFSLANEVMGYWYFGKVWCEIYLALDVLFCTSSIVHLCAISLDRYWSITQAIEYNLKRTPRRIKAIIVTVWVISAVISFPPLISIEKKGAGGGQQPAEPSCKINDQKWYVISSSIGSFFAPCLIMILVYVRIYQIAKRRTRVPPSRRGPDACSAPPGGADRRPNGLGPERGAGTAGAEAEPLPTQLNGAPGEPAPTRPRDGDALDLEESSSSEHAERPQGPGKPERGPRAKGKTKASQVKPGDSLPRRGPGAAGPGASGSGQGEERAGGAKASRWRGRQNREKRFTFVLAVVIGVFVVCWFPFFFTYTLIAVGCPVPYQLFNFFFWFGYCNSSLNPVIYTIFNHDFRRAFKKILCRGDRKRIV
Experiment: Displacement of [3H]RX821002 from Alpha-2 adrenergic receptor in Sprague-Dawley rat brain P2 membranes after […] by liquid scintillation counting
property-measured: Ki

Take a look at these entries with their results.
Brc1ccc2c(ccn2CC2=NCCN2)c1.Cl; 0.5967 µM
Br.COc1cccc2ccn(CC3=NCCN3)c12; 0.28 µM
Cl.Clc1ccc2ccn(CC3=NCCN3)c2c1; 0.0945 µM
Br.c1ccc(COc2cccc3ccn(CC4=NCCN4)c23)cc1; 5.241 µM
Cl.Fc1ccc2ccn(CC3=NCCN3)c2c1; 0.0159 µM
Cl.Fc1cccc2c1ccn2CC1=NCCN1; 0.04697 µM

Kindly consider the entry below.
[Q] Checklist item: Ki tested on Adrenergic receptor alpha-2 (Rattus norvegicus, UniProt P22086+P19328+P22909), entry Brc1cccc2c1ccn2CC1=NCCN1.Cl , value?
[A] 0.0844 µM
